Values were extracted from the supplement of paper PMC12042874.

- assay-method-text: amyloid nucleation score (Sup35N fusion, yeast selection) (log enrichment); library NNK3; higher = more nucleation; inactive = no reads after selection;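 also: zero at mode of non-aggregating sequences after 7 days selection at 30°C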
property-measured: amyloid nucleation score

- substance: "SISIFHNCF"
  amyloid nucleation score: 2.66
- substance: "PSTVTFRWFIVVSPLRHWFA"
  amyloid nucleation score: "inactive"
- substance: "NLENVLFRDRYQSSTCKLCK"
  amyloid nucleation score: "inactive"
- substance: "CINNLYGRNVGSYGECEPFA"
  amyloid nucleation score: "inactive"
- substance: "VYAEKMMVSSHLCGLRRRFK"
  amyloid nucleation score: "inactive"
- substance: "KLSLMAVNLSWIYFCL"
  amyloid nucleation score: 0.182
- substance: "GISILLSSYPRMCLLRLVGL"
  amyloid nucleation score: "inactive"
- substance: "TNYYFALLGYYHLFSSTGHR"
  amyloid nucleation score: 2.66
- substance: "VFLSSELSTLLVVYRLLGSG"
  amyloid nucleation score: "inactive"
- substance: "LDLFVV"
  amyloid nucleation score: "inactive"

Record amyloid nucleation score per entry; entries follow.
1. YPHREQVRRSL
2. VEYLFVNCWSTE

OUT:
1. inactive
2. inactive

----------
- assay-method-text: amyloid nucleation score (Sup35N fusion, yeast selection) (log enrichment); library NNK2; higher = more nucleation; inactive = no reads after selection
Binary classification by amyloid nucleation score, with -0.3 as an inclusive lower bound for true; all other cases are false.

Some solved entries appear below for comparison.
- substance: "INLNNFLVLLLCKHRVVWKQ"
  assigned-label: "true"
- substance: "AEGVSL"
  assigned-label: "false"
- substance: "SSFRVELHRCFVKVFLLLY"
  assigned-label: "true"
- substance: "CWRVDSFVLGNHNGIGVCFV"
  assigned-label: "false"
- substance: "YFCCVSTIARSMFLSRGSGR"
  assigned-label: "true"

IN: Item `DFLSGTMVDETSDKGISLLV` with amyloid nucleation score of -0.3 or above?
OUT: true

----------
- assay-method-text: amyloid nucleation score (Sup35N fusion, yeast selection) (log enrichment); library NNK3; higher = more nucleation; inactive = no reads after selection
property-measured: amyloid nucleation score

Answered cases to consult:
- substance: "FNLSVINSRGQLECVLNPVK"
  amyloid nucleation score: "inactive"
- substance: "CIFTIFNYQTLIELSHYFSR"
  amyloid nucleation score: 1.82
- substance: "SNMVPLVNSIPRKGVVKG"
  amyloid nucleation score: "inactive"
- substance: "GCAGRSWTGYRVHAASV"
  amyloid nucleation score: "inactive"
- substance: "LFTACNLKIDVLLSTRSFAL"
  amyloid nucleation score: 1.6

For each of the items listed, what is its amyloid nucleation score?
1. VFNRSSAT
2. TQPDLV

OUT:
inactive
inactive

----------
- assay-method-text: amyloid nucleation score (Sup35N fusion, yeast selection) (log enrichment); library NNK1; higher = more nucleation; inactive = no reads after selection
Give measured amyloid nucleation score for each item. Keep answers brief.
Answers are plain numbers.

- seq-text: "QAKLPLTIDCMKCGTVGTGR"
  reported-value: -0.16
- seq-text: "YGTGMCHELCIDVTSWVMWM"
  reported-value: -1.57
- seq-text: "VLLFVVLHLNLSVHILQNFQ"
  reported-value: -0.396
- seq-text: "HFFNVYGSNMVISSWDSRCE"
  reported-value: 6.23
- seq-text: "QKYPSWINFPYF"
  reported-value: -0.935
- seq-text: "FVVLSRFACRLRLTR"
  reported-value: 0.853
- seq-text: "LLGNSLAVSFSFNSLVNHYS"
  reported-value: 6.02
- seq-text: "YLFSIVFCNV"
  reported-value: 2.67

Dear colleague, could you send me amyloid nucleation score for each of the items below? Thanks.
1. GKMMVFRVFFRFVPSESWVI
2. NDDSDSVVFSTNGGIYFMHG
3. CYCFGQCWYDYVCIELLIGR

OUT:
[-0.638, -0.177, 5.06]
